System: SF-539 CNS
Assay: NCI-60 one-dose screen, 48 h (100 = growth as untreated, 0 = no growth, -100 = all killed)
Conditions: 10 µM unless noted
Procedure: Cells are grown in 96 well plates and exposed to the test compound for 48 hours. Compounds are tested at a single concentration, which is 10^-5 M for most compounds. The reported endpoint is percent growth (GI% or GIPRCNT), where numbers from 0 - 100% represent growth inhibition, and numbers from -100% - 0 represent cell death. For example, a value of 40 represents 60% growth inhibition. A value of 0 means no net growth occurred over the course of the experiment. […]
This is part of a sample that, as a whole, favours compounds with a hit. Of some 83,000 tested, about 20% had one in any assay. Active and inactive are the calls of the source. Rule for the calls: active = growth percent below 10; inactive = the rest.

- compound: "Clc1ccc2nc(CI)c(CI)nc2c1"
  test-system: "SF-539 CNS"
  growth: "100% (inactive)"
- compound: "O=C1C=CC(=O)N1c1ccccc1N1C(=O)C=CC1=O"
  test-system: "SF-539 CNS"
  growth: "100% (inactive)"
- compound: "COc1cc(-c2nc3sc4c(c3c(=O)[nH]2)CCCCCC4)cc(OC)c1OC"
  test-system: "SF-539 CNS"
  growth: "-5.36% (active)"
- compound: "NS(=O)(=O)c1ccc(-n2nc(-c3ccc(Br)cc3)ccc2=O)cc1"
  test-system: "SF-539 CNS"
  growth: "67% [100 µM] (inactive)"
- compound: "O=C(NCCCl)NCCN1c2nc3ccccc3cc2Sc2cc3ccccc3nc21"
  test-system: "SF-539 CNS"
  growth: "38.3% (inactive)"
- compound: "COc1cc(/C=C\\C(C)=N\\Nc2ccccc2)ccc1O"
  test-system: "SF-539 CNS"
  growth: "88.1% (inactive)"
- compound: "CSc1nc(Nc2ccc(S(=O)(=O)Nc3ccon3)cc2)c(C#N)c(-c2ccc(Cl)cc2)n1"
  test-system: "SF-539 CNS"
  growth: "106% (inactive)"
- compound: "CN(C)c1ccc(-c2nc3ncc(Br)cc3o2)cc1"
  test-system: "SF-539 CNS"
  growth: "91.4% (inactive)"
- compound: "CCOC(=O)/C(=C/CC/C(C)=C/CC/C(C)=C/CCc1ccoc1)CC(=O)N1CCCCC1"
  test-system: "SF-539 CNS"
  growth: "76.3% (inactive)"
- compound: "C1=C(Cc2ccccc2)n2cnc3ncnc(c32)S1"
  test-system: "SF-539 CNS"
  growth: "43.2% (inactive)"
- compound: "O=C1C(=O)c2c(nc3ccc(Cl)cn23)-c2ccccc21"
  test-system: "SF-539 CNS"
  growth: "-100% (active)"
- compound: "O=C1/C(=C/c2ccccc2O)C(=S)SN1Cc1ccco1"
  test-system: "SF-539 CNS"
  growth: "97.4% (inactive)"
- compound: "CC(=O)N1N=C(c2ccc(Cl)cc2)CC1c1c(C)nn(-c2ccccc2)c1N(C)Cc1ccccc1 (stereo not drawn)"
  test-system: "SF-539 CNS"
  growth: "93.8% (inactive)"
- compound: "CCOc1cc(CCNS(=O)(=O)c2ccc(C)cc2)c(C(C)=O)cc1OCC"
  test-system: "SF-539 CNS"
  growth: "101% [100 µM] (inactive)"
- compound: "C[C@]12CC[C@H](O)CC1=CC[C@@H]1[C@@H]2CC[C@]2(C)C(c3cccnc3)=CC[C@@H]12"
  test-system: "SF-539 CNS"
  growth: "31.8% (inactive)"
- compound: "CN1CCN(c2nc3scc(-c4ccccc4)c3c(=O)[nH]2)CC1"
  test-system: "SF-539 CNS"
  growth: "93.7% (inactive)"
- compound: "COc1cccc(-c2nc(-c3ccc(N)cc3)co2)c1"
  test-system: "SF-539 CNS"
  growth: "110% (inactive)"
- compound: "COc1cc(NC(C)CCCN)c2nc(C)ccc2c1Oc1ccc(F)cc1 (stereo not drawn)"
  test-system: "SF-539 CNS"
  growth: "87.5% (inactive)"
